SUBJECT OF TEST: D1 dopamine receptors (Rattus norvegicus)
Construct: Striatal samples from the brains of male Charles River CD rats
ASSAY: D1 dopamine receptor binding: inhibition of tritiated SCH 23390 binding, rat striatal samples
CONDITION DETAILS: rat striatum, tritiated SCH 23390, pH 7.4, 37° C., 30 minutes
QUANTITY: Ki (nM)

Known Ki results, listed for orientation:
>  <MOLECULE>
Cc1cc2c(cc1O)C(C1(c3ccccc3Cl)CC1)N(C)CC2 (single isomer, unassigned; (+)) [Example 80]

>  <SUBJECT OF TEST>
D1 dopamine receptors (Rattus norvegicus)

>  <Ki, nM>
0.67

$$$$
>  <MOLECULE>
CN1CCc2ccc(O)cc2C1C1(c2ccccc2Cl)CC1 (stereo not shown) [Example 12]

>  <SUBJECT OF TEST>
D1 dopamine receptors (Rattus norvegicus)

>  <Ki, nM>
1.4

$$$$
>  <MOLECULE>
CN1CCc2cc(O)c(O)cc2C1C1(c2ccc(Cl)cc2)CCCCC1 (stereo not shown) [Example 16]

>  <SUBJECT OF TEST>
D1 dopamine receptors (Rattus norvegicus)

>  <Ki, nM>
180

$$$$
>  <MOLECULE>
CN1CCc2cc(O)c(O)cc2C1C1(c2ccc(Br)cc2)CCC1 (stereo not shown) [Example 17]

>  <SUBJECT OF TEST>
D1 dopamine receptors (Rattus norvegicus)

>  <Ki, nM>
3.9

$$$$
>  <MOLECULE>
COc1cc2c(cc1O)C(C1(c3ccccc3Cl)CCC1)N(C)CC2 (stereo not shown) [Example 69]

>  <SUBJECT OF TEST>
D1 dopamine receptors (Rattus norvegicus)

>  <Ki, nM>
2.1

$$$$
>  <MOLECULE>
CN1CCc2cc(O)c(O)cc2C1C1(c2ccc(Cl)cc2)CC1 (stereo not shown) [Example 13]

>  <SUBJECT OF TEST>
D1 dopamine receptors (Rattus norvegicus)

>  <Ki, nM>
44

$$$$

A: CN1CCc2cc(Cl)c(O)cc2C1C1(c2ccc(Cl)cc2)CCC1 (stereo not shown) [Example 53]
B: COc1cc2c(cc1O)C(C1(c3ccccc3)CCCCC1)N(C)CC2 (stereo not shown) [Example 36]
Please state the entry with greater Ki among A and B . Field: selected label. Fill in the label of the entry you choose.
B

1: COc1cc2c(cc1O)C(C1(c3ccccc3Cl)CC1)N(C)CC2 (stereo not shown) [Example 74]
2: COc1cc2c(cc1O)C(C1(c3ccccc3)CCCC1)N(C)CC2 (stereo not shown) [Example 48]
Out of 1 and 2 , name the one with the higher Ki. # answer = label of selected item
2

====

SUBJECT OF TEST: D2 dopamine receptors (Rattus norvegicus)
Construct: Striatal samples from the brains of male Charles River CD rats; from tissue; host or cells: striatum of male Charles River CD rats (washed membrane pellet)
ASSAY: D2 dopamine receptor binding: inhibition of tritiated (S)-sulpiride binding, rat striatal samples
Design: species or system rat (male Charles River CD rats)
CONDITION DETAILS: rat striatum, tritiated (S)-sulpiride, pH 7.7, 4° C., 40 minutes; > = from highest concentration which displaced ≤50% of the ligand; read-out: Ki for D2 binding
pKi: −log10 of the molar value.
QUANTITY: pKi

>  <COMPOUND>
CN1CCc2cc(F)c(O)cc2C1C1(c2ccc(Cl)cc2Cl)CCC1 (stereo not shown)

>  <pKi>
5.74

$$$$
>  <COMPOUND>
Cc1cc2c(cc1O)C(C1(c3ccccc3Cl)CC1)N(C)CC2 (single isomer, unassigned; (+)) [Example 80]

>  <pKi>
6.43

$$$$
>  <COMPOUND>
Cc1cc2c(cc1O)C(C1(c3ccccc3Cl)CCC1)N(C)CC2 (stereo not shown)

>  <pKi>
5.60

$$$$
>  <COMPOUND>
CN1CCc2cc(O)c(O)cc2C1C1(c2ccccc2)CC1 (stereo not shown)

>  <pKi>
5.24

$$$$
>  <COMPOUND>
COc1cc2c(cc1O)C(C1(c3ccccc3OC)CCC1)N(C)CC2 (stereo not shown)

>  <pKi>
5.47

$$$$
>  <COMPOUND>
COc1cc2c(cc1O)C(C1(c3ccc(OC(F)(F)F)cc3)CCC1)N(C)CC2 (stereo not shown)

>  <pKi>
5.02

$$$$

I: COc1cc2c(cc1O)C(C1(c3ccccc3Cl)CC(C)(C)C1)N(C)CC2 (stereo not shown)
II: CN1CCc2cc(O)c(O)cc2C1C1(c2ccccc2Br)CCC1 (stereo not shown) [Example 1]
III: CN1CCc2cc(-c3ccccc3)c(O)cc2C1C1(c2ccccc2Cl)CCC1 (stereo not shown)
IV: CN1CCc2cc(F)c(O)cc2C1C1(c2ccccc2)CCC1 (stereo not shown)
V: CN1CCc2cc(F)c(O)cc2C1C1(c2ccccc2Cl)CC1 (stereo not shown) [Example 61]
Arrange the 5 compounds by rising pKi, starting with the smallest. # list labels per requested ordering
IV, I, III, II, V
(IV: 2.27, I: 4.46, III: 5.46, II: 6.00, V: 6.35)

A: COc1cc2c(cc1O)C(C1(c3ccccc3Cl)CC1)N(C)CC2 (single isomer, unassigned; (+)) [Example 85]
B: CN1CCc2cc(O)c(O)cc2C1C1(c2ccc(Cl)cc2)CCC1 (stereo not shown)
Please indicate which has the smaller reported pKi: A , or B . Write down the label of the entry you select.
B

A: COc1cc2c(cc1O)C(C1(c3ccccc3Cl)CCCC1)N(C)CC2 (stereo not shown)
B: CN1CCc2cc(O)c(O)cc2C1C1(c2ccc3ccccc3c2)CCC1 (stereo not shown)
Please indicate which item has the smaller measured pKi: A versus B Write the label of whichever entry you select.
A
(A: 5.29, B: 5.60)

====

SUBJECT OF TEST: D1 dopamine receptors (Rattus norvegicus, UniProt P18901)
Construct: Striatal samples from the brains of male Charles River CD rats; from tissue; host or cells: striatum of male Charles River CD rats (washed membrane pellet)
Sequence (P18901 whole entry): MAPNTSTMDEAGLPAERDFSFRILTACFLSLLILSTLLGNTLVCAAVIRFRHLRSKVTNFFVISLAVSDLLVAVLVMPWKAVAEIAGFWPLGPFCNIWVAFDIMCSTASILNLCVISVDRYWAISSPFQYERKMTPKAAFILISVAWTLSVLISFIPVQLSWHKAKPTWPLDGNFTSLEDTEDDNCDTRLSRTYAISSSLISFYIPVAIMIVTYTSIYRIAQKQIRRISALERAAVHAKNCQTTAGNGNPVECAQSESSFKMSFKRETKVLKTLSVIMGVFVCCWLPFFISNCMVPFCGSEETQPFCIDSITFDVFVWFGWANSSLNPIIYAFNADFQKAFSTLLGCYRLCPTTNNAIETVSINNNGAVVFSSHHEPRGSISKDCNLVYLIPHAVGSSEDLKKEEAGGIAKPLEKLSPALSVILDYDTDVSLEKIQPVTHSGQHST
ASSAY: D1 dopamine receptor binding: inhibition of tritiated SCH 23390 binding, rat striatal samples
Parameters: species or system rat (male Charles River CD rats)
CONDITION DETAILS: rat striatum, tritiated SCH 23390, pH 7.4, 37° C., 30 minutes
QUANTITY: Ki (nM)

I: Cc1cc2c(cc1O)C(C1(c3ccccc3Cl)CCC1)N(C)CC2 (centres unmarked) [Example 10]
II: COc1cc2c(cc1O)C(C1(c3ccccc3Cl)CC(C)(C)C1)N(C)CC2 (centres unmarked) [Example 70]
III: CN1CCc2ccc(O)cc2C1C1(c2ccccc2Cl)CCC1 (centres unmarked) [Example 47]
Order the entries above from lowest to highest Ki. Record the ranking as a list of labels in the requested order.
I, III, II

I: CN1CCc2cc(F)c(O)cc2C1C1(c2ccccc2)CCC1 (centres unmarked) [Example 25]
II: CN1CCc2cc([N+](=O)[O-])c(O)cc2C1C1(c2ccccc2)CCC1 (centres unmarked) [Example 57]
API: POST /compare with I and II ; response names the item with higher Ki. Indicate which entry you chose by stating its label.
II

====

SUBJECT OF TEST: D2 dopamine receptors (Rattus norvegicus, UniProt P61169)
Construct: Striatal samples from the brains of male Charles River CD rats; from tissue; host or cells: striatum of male Charles River CD rats (washed membrane pellet)
Sequence (P61169 whole entry): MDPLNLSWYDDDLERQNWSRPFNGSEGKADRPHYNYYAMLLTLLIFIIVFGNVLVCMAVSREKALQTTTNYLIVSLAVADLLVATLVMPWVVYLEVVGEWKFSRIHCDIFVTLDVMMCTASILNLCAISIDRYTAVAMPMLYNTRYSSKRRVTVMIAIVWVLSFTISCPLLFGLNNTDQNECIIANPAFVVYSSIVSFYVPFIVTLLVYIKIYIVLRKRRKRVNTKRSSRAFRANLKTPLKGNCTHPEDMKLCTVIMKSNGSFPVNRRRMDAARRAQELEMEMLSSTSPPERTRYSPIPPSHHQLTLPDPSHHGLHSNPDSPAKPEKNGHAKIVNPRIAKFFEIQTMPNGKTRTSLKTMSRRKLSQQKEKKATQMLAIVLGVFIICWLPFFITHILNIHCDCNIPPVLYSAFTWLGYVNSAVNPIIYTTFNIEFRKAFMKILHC
ASSAY: D2 dopamine receptor binding: inhibition of tritiated (S)-sulpiride binding, rat striatal samples
Parameters: species or system rat (male Charles River CD rats)
CONDITION DETAILS: ratio to two significant figures
QUANTITY: Ki for D2 / Ki for D1

Some solved entries appear below for comparison.
>  <MOLECULE>
CN1CCc2cc(O)c(O)cc2C1C1(c2ccccc2)CC1 (centres unmarked)

>  <SUBJECT OF TEST>
D2 dopamine receptors (Rattus norvegicus, UniProt P61169)

>  <QUANTITY>
Ki for D2 / Ki for D1

>  <TEST VALUE>
30

$$$$
>  <MOLECULE>
COc1cccc(C2(C3c4cc(O)c(OC)cc4CCN3C)CCC2)c1 (centres unmarked)

>  <SUBJECT OF TEST>
D2 dopamine receptors (Rattus norvegicus, UniProt P61169)

>  <QUANTITY>
Ki for D2 / Ki for D1

>  <TEST VALUE>
83

$$$$
>  <MOLECULE>
COc1cc2c(cc1O)C(C1(c3ccccc3OC)CCC1)N(C)CC2 (centres unmarked)

>  <SUBJECT OF TEST>
D2 dopamine receptors (Rattus norvegicus, UniProt P61169)

>  <QUANTITY>
Ki for D2 / Ki for D1

>  <TEST VALUE>
830

$$$$
>  <MOLECULE>
CN1CCc2ccc(O)cc2C1C1(c2ccccc2Cl)CCC1 (centres unmarked)

>  <SUBJECT OF TEST>
D2 dopamine receptors (Rattus norvegicus, UniProt P61169)

>  <QUANTITY>
Ki for D2 / Ki for D1

>  <TEST VALUE>
2100

$$$$
>  <MOLECULE>
CN1CCc2cc(Cl)c(O)cc2C1C1(c2ccc(Cl)cc2)CCC1 (centres unmarked)

>  <SUBJECT OF TEST>
D2 dopamine receptors (Rattus norvegicus, UniProt P61169)

>  <QUANTITY>
Ki for D2 / Ki for D1

>  <TEST VALUE>
320

$$$$

I: CN1CCc2cc(F)c(O)cc2C1C1(c2ccccc2Cl)CC1 (centres unmarked) [Example 63]
II: CN1CCc2cc(O)c(O)cc2C1C1(c2ccc(Cl)cc2)CCCCC1 (centres unmarked)
III: COc1cc2c(cc1O)C(C1(c3cc(OC)c(OC)cc3Br)CCC1)N(C)CC2 (centres unmarked)
IV: CN1CCc2cc(O)c(O)cc2C1C1(c2ccccc2F)CCC1 (centres unmarked)
Arrange items by their Ki for D2 / Ki for D1 values in increasing order. I'd appreciate it if you listed the labels in the requested order.
II, IV, I, III

1: CN1CCc2cc(F)c(O)cc2C1C1(c2ccccc2Cl)CCC1 (centres unmarked) [Example 24]
2: COc1cc2c(cc1O)C(C1(c3ccccc3Cl)CCC1)N(C)CC2 (centres unmarked) [Example 69]
3: CN1CCc2cc(F)c(O)cc2C1C1(c2ccc(Cl)cc2Cl)CC1 (centres unmarked)
Kindly order the items shown according to Ki for D2 / Ki for D1, from the highest value down. State the ranking by listing the labels in the requested order.
2, 1, 3
(2: 2800, 1: 890, 3: 170)

P: CN1CCc2cc(O)c(O)cc2C1C1(c2ccc(Cl)cc2)CCC1 (centres unmarked)
Q: CN1CCc2cc(O)c(O)cc2C1C1(c2ccccc2Br)CCC1 (single isomer, unassigned; (+)) [Example 60]
R: C=CCN1CCc2cc(Cl)c(O)cc2C1C1(c2ccccc2)CCC1 (centres unmarked)
Order the records so the highest Ki for D2 / Ki for D1 appears first and the lowest last. // ordering of labels required in reply
R, Q, P
(R: 2300, Q: 710, P: 60)

A: COc1cc2c(cc1O)C(C1(c3ccccc3Br)CCC1)N(C)CC2 (centres unmarked)
B: CN1CCc2cc(O)c(O)cc2C1C1(c2ccc(F)cc2)CCC1 (centres unmarked)
Hi, I'm comparing A with B and wondering which one has the bigger number for Ki for D2 / Ki for D1. Any idea? To answer, give the label that identifies your chosen option.
B
